# MEASUREMENT TARGET: Palmitoleoyl-protein carboxylesterase NOTUM (Homo sapiens, UniProt Q6P988, C330S)
# Sequence (Q6P988 20-496 C330S limits assumed): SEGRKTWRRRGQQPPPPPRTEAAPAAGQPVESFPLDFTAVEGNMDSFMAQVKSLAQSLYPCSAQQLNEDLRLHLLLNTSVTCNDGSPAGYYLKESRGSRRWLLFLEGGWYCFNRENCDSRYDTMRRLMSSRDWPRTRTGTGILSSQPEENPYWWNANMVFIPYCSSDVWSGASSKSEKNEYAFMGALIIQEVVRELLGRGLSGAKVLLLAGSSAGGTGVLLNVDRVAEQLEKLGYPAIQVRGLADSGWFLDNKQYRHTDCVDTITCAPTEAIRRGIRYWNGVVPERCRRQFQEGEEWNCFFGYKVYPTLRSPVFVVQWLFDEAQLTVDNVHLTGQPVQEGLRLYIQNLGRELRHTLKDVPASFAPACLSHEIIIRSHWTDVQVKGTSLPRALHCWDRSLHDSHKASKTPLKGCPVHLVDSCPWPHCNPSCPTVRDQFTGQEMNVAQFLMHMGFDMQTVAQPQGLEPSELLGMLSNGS
# TEST DESCRIPTION: Inhibition of human Notum (S81 to T451 residues) Cys330Ser mutant expressed in HEK293S GnTI cells using OPTS as substrate incubated for 40 mins by fluorescence based assay
RESULT TYPE: IC50 (µM)

* O=C(O)C1CCN(c2cccc(OC(F)(F)F)c2)C1 (racemic) | 63

[1] Cc1cc(C(=O)O)c(C)n1-c1cc(Cl)cc(Cl)c1
[2] Cc1cc(C(=O)O)c(C)n1-c1cccc(C(C)C)c1F
Query: Looking at 1 and 2 , which one comes out lower in IC50 terms? Lab log: write the label of the selected item as the result.
Reply: 2
